Just for reference, PubChem BioAssay (NCI) is where these values come from.

# Tested on: CAKI-1 renal
# protocol text: NCI tumour cell line growth inhibition, 48 h
Below, each of the compounds is paired with its reported GI50 value.

{"columns": ["compound", "GI50"],
 "data": [
  ["c1ccc2c(c1)ccc1c3ccccc3ccc21", "> 50000 nM"]
]}

Query: Consider the compound CCCCc1nc2cc(/C=C/C(=O)NO)ccc2n1CCN(CC)CC and give its measured GI50.
Result: 237 nM

Query: Thanks! And COc1cc(/C=C/C(=O)c2cc(OC)c(OC)c(OC)c2)cc(OC)c1OC ?
Result: 1230 nM

Query: And COC(=O)[C@]12CC[C@@H](C)[C@H](C)[C@@H]1C1=CC[C@@H]3[C@@]4(C)C=C(O)C(=O)C(C)=C4CC[C@@]3(C)[C@]1(C)CC2 ?
Result: 12400 nM

Query: Note, next up: Nc1nc(Nc2ccc3c(c2)CCC(N2CCCC2)CC3)nn1-c1cc2c(nn1)-c1ccccc1CCC2 (stereo not given)
Result: 531 nM

Query: Consider next the compound COC1CCC(n2c([C@@H]3CCCC(=O)N3c3ccc(F)c(F)c3)nc3cc(-c4c(C)noc4C)ccc32)CC1 (stereo not given in full) in the same way.
Result: 640 nM

Query: Also, Nc1c(O)c(S(=O)(=O)O)c(O)c2c1C(=O)c1ccccc1C2=O please.
Result: 2340 nM

Query: Then Clc1ccc(Nc2nc3ccccc3c3occc23)cc1 ?
Result: 3070 nM
